Test system: P. aeruginosa PA7 (DSM 24068)
testDescription: microbe, parasite or virus in culture
Format: cell-based, Pseudomonas aeruginosa
measurementSetup: n = 3, MHB, 22 h
observationType: MIC P. aeruginosa (value in brackets)
Quick note: number first, unit second.

### Prompt What measured MIC P. aeruginosa (value in brackets) goes with "Cn1[c](=[Ag][Br])n(Cc2ccccn2)c2ccccc21" ?
### Response 11 µg/mL

### Prompt # repeat for "COCCn1[c](=[Ag][Br])n(Cc2ccccn2)c2ccccc21"
### Response 11 µg/mL

### Prompt # repeat for "COCCn1[c](=[Ag][I])n(Cc2ccccn2)c2ccccc21"
### Response 9 µg/mL
